Values from paper PMC10609429

Record form. Attribute: solubility. Fill in for each entry.
# Assay info: Solubility evaluation of nandrolone esters in oil / benzyl benzoate / benzyl alcohol mixtures
# Type: physicochemical
# Cond: cottonseed oil / benzyl benzoate / benzyl alcohol mixture, 24 °C, oil or lipid, thermodynamic from solid, cottonseed oil mixture: 2% benzyl alcohol, 20% benzyl benzoate, 78% oil (v/v); room temperature 24 °C; average of two measurements; read-out: Solubility, COTTON
# Protocol: From a pharmaceutical standpoint, the solubility of esterified agents (mg/mL) plays an important role in drug development and delivery. In this context, the solubilities were evaluated in multiple mixtures based on various organic oils: medium-chain triglyceride (MCT), apricot, grape seed oil (GSO) and cottonseed oil. […] Solubility evaluation was accomplished at a room temperature of 24 °C in successive additions of small quantities of raw materials (a few mg each step). […]
One number for each entry, in mg/mL.

The cases that follow already have their solubility on record.
>>> obs_value("C[C@]12CC[C@H]3[C@@H](CCC4=CC(=O)CC[C@@H]43)[C@@H]1CC[C@@H]2OC(=O)CCc1ccccc1 [NPhp, Nandrolone phenylpropionate]")
140
>>> obs_value("CCCCCCCCCCC(=O)OC1CCC2C3CCC4=CC(=O)CCC4C3CCC12C (stereo not drawn) [NUnd, Nandrolone undecanoate]")
199

Ask | Entry under review: CCC(=O)OC1CCC2C3CCC4=CC(=O)CCC4C3CCC12C (stereo not drawn) [NPro, Nandrolone propionate] . Reported solubility?
Reply | 180

====

I'd be grateful if you could share measured solubility for these entries.
# Assay info: Solubility evaluation of nandrolone esters in oil / benzyl benzoate / benzyl alcohol mixtures
# Format: physicochemical
# Cond: 24 °C, oil or lipid, thermodynamic from solid, average over the four oil mixtures (apricot, GSO, MCT, cottonseed), read-out: Solubility (average)

Please review the following examples before continuing.
>>> obs_value("C[C@]12CC[C@H]3[C@@H](CCC4=CC(=O)CC[C@@H]43)[C@@H]1CC[C@@H]2OC(=O)CCc1ccccc1 [NPhp, Nandrolone phenylpropionate]")
"~138 mg/mL"
>>> obs_value("CCC(=O)OC1CCC2C3CCC4=CC(=O)CCC4C3CCC12C (stereo not drawn) [NPro, Nandrolone propionate]")
"~188 mg/mL"

Would you kindly look at the next entry?
Ask | Would you kindly share the measured solubility for CCCCCCCCCCC(=O)OC1CCC2C3CCC4=CC(=O)CCC4C3CCC12C (stereo not drawn) [NUnd, Nandrolone undecanoate] ?
Reply | ~192 mg/mL

====

# Assay info: Solubility evaluation of nandrolone esters in oil / benzyl benzoate / benzyl alcohol mixtures
# Format: physicochemical
# Cond: 24 °C, oil or lipid, thermodynamic from solid, medium-chain triglyceride mixture: 2% benzyl alcohol, 20% benzyl benzoate, 78% oil (v/v); room temperature 24 °C; average of two measurements; read-out: Solubility, MCT
Measurement label: solubility

Example cases with answers are listed next.
>>> obs_value("CCCCCCCCCCC(=O)OC1CCC2C3CCC4=CC(=O)CCC4C3CCC12C (stereo not drawn) [NUnd, Nandrolone undecanoate]")
"211 mg/mL"
>>> obs_value("CCC(=O)OC1CCC2C3CCC4=CC(=O)CCC4C3CCC12C (stereo not drawn) [NPro, Nandrolone propionate]")
"187 mg/mL"

Attention now shifts to the item below.
Ask | What value of solubility has been recorded for this entry: C[C@]12CC[C@H]3[C@@H](CCC4=CC(=O)CC[C@@H]43)[C@@H]1CC[C@@H]2OC(=O)CCc1ccccc1 [NPhp, Nandrolone phenylpropionate]
Reply | 148 mg/mL
